Documented pIC50 across a set of compounds
- test system: S1P1 (Homo sapiens (Human))
Structures can show the parent of a compound that is named as a salt.
As a rule, pIC50 stands for the negative log10 of the concentration, concentration in M.

Observe how each entry below is paired with its result.
INSERT INTO assay_data (compound, test_system, readout_name, number) VALUES
  ('Cn1cccc1CNC(=O)C(O)c1ccc(-c2noc(-c3onc(-c4ccccc4)c3C(F)(F)F)n2)cc1 (racemic) [Example 132]', 'S1P1 (Homo sapiens (Human))', 'pIC50', 7.38),
  ('O=C(NCCO)C(O)c1ccc(-c2noc(-c3noc(-c4ccccc4)c3C(F)(F)F)n2)cc1 (racemic) [Example 62]', 'S1P1 (Homo sapiens (Human))', 'pIC50', 8.49),
  ('Cc1nnc(CNC(=O)C(O)c2ccc(-c3noc(-c4onc(-c5ccccc5)c4C(F)(F)F)n3)cc2)o1 (single isomer, unassigned) [Example 10]', 'S1P1 (Homo sapiens (Human))', 'pIC50', 8.70);

// returns reported pIC50 for input CCNC(=O)C(O)c1ccc(-c2noc(-c3cnn(-c4ccccc4)c3C(F)(F)F)n2)cc1 (racemic) [Example 61] 8.07

Also, CCNC(=O)C(O)c1ccc(-c2noc(-c3noc(-c4ccccc4)c3C(F)(F)F)n2)cc1 (racemic) [Example 67] please. 7.77

Also, O=C(NC1CCS(=O)(=O)C1)C(O)c1ccc(-c2noc(-c3onc(-c4ccccc4)c3C(F)(F)F)n2)cc1 (stereo not drawn) [Example 31] please. 8.35

Also, O=C(O)CCNC(=O)C(O)c1ccc(-c2noc(-c3onc(-c4ccccc4)c3C(F)(F)F)n2)cc1 (racemic) [Example 22] please. 7.54

Also, O=C(NCc1ncc[nH]1)C(O)c1ccc(-c2noc(-c3onc(-c4ccccc4)c3C(F)(F)F)n2)cc1 (single isomer, unassigned) [Example 17] please. 8.17

Also, O=C(NCC1CCCN1)C(O)c1ccc(-c2noc(-c3onc(-c4ccccc4)c3C(F)(F)F)n2)cc1 (racemic) [Example 88, TFA] please. 7.54

Also, O=C(NCCC(=O)N1CC(O)C1)C(O)c1ccc(-c2noc(-c3onc(-c4ccccc4)c3C(F)(F)F)n2)cc1 (racemic) [Example 93] please. 8.54

Also, N#CC1(NC(=O)C(O)c2ccc(-c3noc(-c4onc(-c5ccccc5)c4C(F)(F)F)n3)cc2)CC1 (single isomer, unassigned) [Example 41] please. 8.59

Also, CC(C)(C)OC(=O)NCCNC(=O)C(O)c1ccc(-c2noc(-c3onc(-c4ccccc4)c3C(F)(F)F)n2)cc1 (racemic) [Example 51] please. 7.51

---

Documented EC50 across a set of compounds
- test system: S1P3 (Homo sapiens (Human), UniProt Q99500)
- Sequence (Q99500 whole entry): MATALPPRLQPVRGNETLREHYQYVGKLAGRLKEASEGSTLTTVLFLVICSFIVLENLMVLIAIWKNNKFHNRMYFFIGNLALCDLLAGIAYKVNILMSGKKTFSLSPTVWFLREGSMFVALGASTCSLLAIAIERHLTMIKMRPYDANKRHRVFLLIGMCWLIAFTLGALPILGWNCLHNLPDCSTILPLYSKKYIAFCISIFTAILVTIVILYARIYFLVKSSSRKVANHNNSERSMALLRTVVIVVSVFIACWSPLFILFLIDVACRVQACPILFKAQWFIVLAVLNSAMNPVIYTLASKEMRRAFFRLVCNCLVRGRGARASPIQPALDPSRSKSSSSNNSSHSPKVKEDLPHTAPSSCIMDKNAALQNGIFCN
- experiment description: Receptor [35S] GTPγS Binding Assay, S1P3
- assay setup: membranes from EDG3-Ga15-bla HEK293T cells; * detection limit 62,500 nM, ** detection limit 32,500 nM
Please respond with the number in µM and leave the unit unwritten.

INSERT INTO assay_data (compound, test_system, readout_name, number) VALUES
  ('O=C(NC[C@@H]1CCCC[C@H]1O)C(O)c1ccc(-c2noc(-c3cnn(-c4ccccc4)c3C(F)(F)F)n2)cc1 (mixture of isomers)', 'S1P3 (Homo sapiens (Human), UniProt Q99500)', 'EC50', 11.2);

// returns reported EC50 for input O=C(NCc1cnco1)C(O)c1ccc(-c2noc(-c3onc(-c4ccccc4)c3C(F)(F)F)n2)cc1 (racemic) 20.2

Also, O=C(NCCC(=O)N1CC(O)C1)C(O)c1ccc(-c2noc(-c3onc(-c4ccccc4)c3C(F)(F)F)n2)cc1 (racemic) please. 12

---

- test system: S1P1 (Homo sapiens (Human))
- experiment description: Receptor [35S] GTPγS Binding Assay, S1P1
- Type: biochemical
- assay setup: ratio of GTPγS S1P3 EC50 to GTPγS S1P1 EC50; * and ** S1P3 value at detection limit
readout name: GTPγS S1P3/S1P1
Field format: numeric only.

INSERT INTO measurements (compound, number) VALUES
  ('O=C(NCc1ccccn1)C(O)c1ccc(-c2noc(-c3cnn(-c4ccccc4)c3C(F)(F)F)n2)cc1 (racemic) [Example 137]', 267);

// returns reported GTPγS S1P3/S1P1 for input CN(C)C(=O)CCNC(=O)C(O)c1ccc(-c2noc(-c3onc(-c4ccccc4)c3C(F)(F)F)n2)cc1 (single isomer, unassigned) [Example 74] 1805

Also, Cc1nnc(CNC(=O)C(O)c2ccc(-c3noc(-c4onc(-c5ccccc5)c4C(F)(F)F)n3)cc2)o1 (single isomer, unassigned) [Example 10] please. 2795

---

- Test system: circulating lymphocytes
- experiment description: Blood Lymphocyte Reduction Assay (BLR) in Rodents
- Type: in vivo
- assay setup: Rattus norvegicus, Lewis rats, oral, dose 1 mg/kg, 4 hr, vs vehicle group
- Description: Blood Lymphocyte Reduction Assay (BLR) in Rodents Lewis rats were dosed orally with test article (as a solution or suspension in the vehicle) or vehicle alone (polyethylene glycol 300, “PEG300”). Blood was drawn at 4 hr by retro-orbital bleeding. Blood lymphocyte counts were determined on an ADVIA® 120 Hematology Analyzer (Siemens Healthcare Diagnostics). […]
Documented inhibition in vivo at 1 mg/kg across a set of compounds

INSERT INTO measurements (compound, result) VALUES
  ('N#CC1(NC(=O)C(O)c2ccc(-c3noc(-c4onc(-c5ccccc5)c4C(F)(F)F)n3)cc2)CC1 (single isomer, unassigned)', '80%'),
  ('C[C@@H](C#N)NC(=O)C(O)c1ccc(-c2noc(-c3onc(-c4ccccc4)c3C(F)(F)F)n2)cc1 (stereo partly shown)', '80%'),
  ('O=C(NC1CCS(=O)(=O)C1)C(O)c1ccc(-c2noc(-c3onc(-c4ccccc4)c3C(F)(F)F)n2)cc1 (stereo not shown)', '54%');

// returns reported inhibition in vivo at 1 mg/kg for input O=C(NCCO)C(O)c1ccc(-c2noc(-c3onc(-c4ccccc4)c3C(F)(F)F)n2)cc1 (single isomer, unassigned) 71%

---

- test system: S1P3 (Homo sapiens (Human), UniProt Q99500)
- experiment description: Receptor [35S] GTPγS Binding Assay, S1P3
- Format: biochemical
- assay setup: membranes from EDG3-Ga15-bla HEK293T cells; * detection limit 62,500 nM, ** detection limit 32,500 nM
Documented pEC50 across a set of compounds
As a rule, pEC50 stands for the negative log10 of the concentration, concentration in M.

Observe how each entry below is paired with its result.
INSERT INTO results (compound, test_system, readout_name, number) VALUES
  ('O=C(NCCO)C(O)c1ccc(-c2noc(-c3onc(-c4ccccc4)c3C(F)(F)F)n2)cc1 (single isomer, unassigned) [Example 71]', 'S1P3 (Homo sapiens (Human), UniProt Q99500)', 'pEC50', 4.98),
  ('N#CC1(NC(=O)C(O)c2ccc(-c3noc(-c4onc(-c5ccccc5)c4C(F)(F)F)n3)cc2)CC1 (single isomer, unassigned) [Example 41]', 'S1P3 (Homo sapiens (Human), UniProt Q99500)', 'pEC50', 5.44),
  ('CCNC(=O)C(O)c1ccc(-c2noc(-c3noc(-c4ccccc4)c3C(F)(F)F)n2)cc1 (racemic) [Example 67]', 'S1P3 (Homo sapiens (Human), UniProt Q99500)', 'pEC50', 4.76),
  ('CNC(=O)[C@H](C)NC(=O)C(O)c1ccc(-c2noc(-c3onc(-c4ccccc4)c3C(F)(F)F)n2)cc1 (mixture of isomers) [Example 32]', 'S1P3 (Homo sapiens (Human), UniProt Q99500)', 'pEC50', 4.79);

Alright, here's another compound for you.
// returns reported pEC50 for input O=C(NCc1nc2ccccc2[nH]1)C(O)c1ccc(-c2noc(-c3onc(-c4ccccc4)c3C(F)(F)F)n2)cc1 (racemic) [Example 90] 5.27

---

- test system: S1P1 (Homo sapiens (Human), UniProt P21453)
- Sequence (P21453 whole entry): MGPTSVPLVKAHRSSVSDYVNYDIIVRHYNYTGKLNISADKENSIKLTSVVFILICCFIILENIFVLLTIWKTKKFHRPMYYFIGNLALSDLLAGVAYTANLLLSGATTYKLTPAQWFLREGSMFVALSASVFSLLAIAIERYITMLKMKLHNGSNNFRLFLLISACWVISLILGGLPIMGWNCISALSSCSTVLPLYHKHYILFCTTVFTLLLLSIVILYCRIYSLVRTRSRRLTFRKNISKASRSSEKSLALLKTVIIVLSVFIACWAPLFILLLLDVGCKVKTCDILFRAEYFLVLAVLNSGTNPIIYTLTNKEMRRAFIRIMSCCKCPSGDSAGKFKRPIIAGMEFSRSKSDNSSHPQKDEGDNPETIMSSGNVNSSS
- experiment description: Receptor [35S] GTPγS Binding Assay, S1P1
- Assay type: biochemical
- assay setup: ratio of GTPγS S1P3 EC50 to GTPγS S1P1 EC50; * and ** S1P3 value at detection limit
Documented GTPγS S1P3/S1P1 across a set of molecules
Field format: numeric only.

INSERT INTO assay_data (molecule, readout_name, number) VALUES
  ('CNC(=O)[C@H](C)NC(=O)C(O)c1ccc(-c2noc(-c3onc(-c4ccccc4)c3C(F)(F)F)n2)cc1 (mixture of isomers)', 'GTPγS S1P3/S1P1', 10707),
  ('O=C(NCc1cnco1)C(O)c1ccc(-c2noc(-c3onc(-c4ccccc4)c3C(F)(F)F)n2)cc1 (racemic)', 'GTPγS S1P3/S1P1', 1484),
  ('O=C(NC[C@@H]1CCCC[C@H]1O)C(O)c1ccc(-c2noc(-c3cnn(-c4ccccc4)c3C(F)(F)F)n2)cc1 (mixture of isomers)', 'GTPγS S1P3/S1P1', 22);

What reported GTPγS S1P3/S1P1 corresponds to O=C(NC1CCS(=O)(=O)C1)C(O)c1ccc(-c2noc(-c3onc(-c4ccccc4)c3C(F)(F)F)n2)cc1 (stereo not drawn) on S1P1 (Homo sapiens (Human), UniProt P21453)? 802
